Target: T1, ZFP SBS#1083 (synthetic)
T1 chain: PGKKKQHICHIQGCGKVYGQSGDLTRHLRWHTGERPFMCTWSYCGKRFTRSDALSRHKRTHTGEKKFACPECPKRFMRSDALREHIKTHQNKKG
Assay: EMSA
Details: tags: MBP fusion
Quantity Measured: Kd (nM)
Write the answer as a number in nM, unit excluded.

Tell me the measured Kd of CTGGTGGCA (dsDNA) DNA 1: CTGGTGGCA DNA 2: TGCCACCAG , please.
0.152
